Target: hA2a (Homo sapiens (Human))
Sequence (P29274 whole entry): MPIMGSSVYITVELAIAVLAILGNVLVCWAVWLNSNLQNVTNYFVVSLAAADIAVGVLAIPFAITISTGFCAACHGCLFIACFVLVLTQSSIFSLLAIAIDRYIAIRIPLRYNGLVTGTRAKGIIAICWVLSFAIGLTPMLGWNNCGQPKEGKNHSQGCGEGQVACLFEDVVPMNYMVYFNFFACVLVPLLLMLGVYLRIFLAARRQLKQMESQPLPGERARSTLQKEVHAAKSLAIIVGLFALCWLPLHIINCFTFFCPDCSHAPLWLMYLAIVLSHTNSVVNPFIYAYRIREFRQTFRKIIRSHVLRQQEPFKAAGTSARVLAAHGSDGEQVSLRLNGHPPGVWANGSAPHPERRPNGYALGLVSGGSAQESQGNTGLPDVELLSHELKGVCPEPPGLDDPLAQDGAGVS
Test: Radioligand binding to hA2a membrane ([3H]-CGS21680)
Settings: [3H]-CGS21680, 90 min at 25° C., read-out: Binding Affinity (IC50 nM) hA2a
Excerpt: Binding affinity and specificities of the compounds against different subtype of human adenosine receptors (hA1, hA2A, hA2B and hA3) were characterized with cell membrane chromatography binding analysis. […]
property_name: IC50 (nM)
Give your result in nM as a bare value.

- compound: "Cn1cc(-c2c(-c3ccc(F)cc3)nc(N)n3nc(Cc4ncccc4OC(F)F)nc23)ccc1=O [Example 20]"
  tgt: "hA2a (Homo sapiens (Human))"
  IC50 [nM]: 2.8
- compound: "Cn1cc(-c2c(-c3ccc(F)cc3)nc(N)n3nc(Cc4ncccc4F)nc23)ccc1=O [Example 1]"
  tgt: "hA2a (Homo sapiens (Human))"
  IC50 [nM]: 2.3
- compound: "CCn1cc(-c2c(-c3ccc(F)cc3)nc(N)n3nc(Cc4ncccc4F)nc23)ccc1=O [Example 34]"
  tgt: "hA2a (Homo sapiens (Human))"
  IC50 [nM]: 2.8

Next compound, IC50 to be filled in.
Note to self: IC50 of Cn1cc(-c2c(-c3ncco3)nc(N)n3nc(Cc4ncccc4F)nc23)ccc1=O [Example 21] with hA2a (Homo sapiens (Human)) was 20

* * *

molecular target: hA2a (Homo sapiens (Human)); assay: cAMP inhibition assay in hA2a/CHO cells; assay type: cell-based; conditions: adenosine stimulation, read-out: cAMP & FLIPR IC50 (nM) hA2a
// reported IC50 for each item listed
Give your result in nM as a bare value.

// solved cases for IC50 follow
- line_notation: "Cc1nc(Cc2nc3c(-c4ccc5nccn5c4)c(-c4ccc(F)cc4)nc(N)n3n2)cs1"
  measurement: 3.2
- line_notation: "Cn1cc(-c2c(Cl)nc(N)n3nc(Cc4c(F)cccc4F)nc23)ccc1=O"
  measurement: 158

Next molecule, IC50 to be filled in.
Measured IC50, `Cc1cc(-c2c(-c3ccc(F)cc3)nc(N)n3nc(Cc4ncccc4F)nc23)cc(Cl)n1` : 1.2

* * *

target: UniProt:P30542; assay: FLIPR inhibition assay in hADORA1/CHO (hA1 expressing) cells; format: cell-based; conditions: hADORA1/CHO cells, FLIPR calcium, adenosine stimulation; read-out: cAMP & FLIPR IC50 (nM) hA1
Sequence (P30542 whole entry): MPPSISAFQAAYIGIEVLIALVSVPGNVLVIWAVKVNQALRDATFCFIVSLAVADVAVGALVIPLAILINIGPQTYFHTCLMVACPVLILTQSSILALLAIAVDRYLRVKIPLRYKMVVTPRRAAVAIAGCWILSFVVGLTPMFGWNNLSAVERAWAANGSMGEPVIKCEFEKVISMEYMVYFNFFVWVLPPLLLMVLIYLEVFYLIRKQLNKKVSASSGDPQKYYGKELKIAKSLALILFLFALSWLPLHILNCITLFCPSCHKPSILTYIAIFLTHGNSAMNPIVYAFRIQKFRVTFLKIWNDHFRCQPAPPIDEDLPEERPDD
// reported IC50 for each item listed
Give your result in nM as a bare value.

// solved cases for IC50 follow
- molecule: "COC1CN(c2nc(N)n3nc(Cc4c(F)cccc4F)nc3c2-c2ccc3ncc(C)n3c2)C1 [Example 109]"
  tgt: "UniProt:P30542"
  unit_of_measure: "nM"
  IC50: 30.6
- molecule: "Cc1cc(-c2c(-c3ccc(F)cc3)nc(N)n3nc(Cc4ncccc4F)nc23)cn(C)c1=O [Example 29]"
  tgt: "UniProt:P30542"
  unit_of_measure: "nM"
  IC50: 4.3
- molecule: "Cn1cc(-c2c(-c3ccc(F)cc3)nc(N)n3nc(Cc4ncccc4OC(F)F)nc23)ccc1=O [Example 20]"
  tgt: "UniProt:P30542"
  unit_of_measure: "nM"
  IC50: 34
- molecule: "Nc1nc(-c2ccc(F)cc2)c(-c2ccnc(C(F)(F)F)c2)c2nc(Cc3c(F)cccc3F)nn12 [Example 4]"
  tgt: "UniProt:P30542"
  unit_of_measure: "nM"
  IC50: 511

Next molecule, IC50 to be filled in.
Measured IC50, CN1CCC[C@H]1Cc1nc2c(-c3ccc4ncn(C)c4c3)c(-c3ccc(F)cc3)nc(N)n2n1 [Example 103] : 264

* * *

biological target: hA2b (Homo sapiens (Human)); experiment: cAMP inhibition assay in hA2b/CHO cells; type: cell-based; settings: adenosine stimulation, read-out: cAMP & FLIPR IC50 (nM) hA2b
// reported IC50 for each item listed
Give your result in nM as a bare value.

Measured IC50, `Cn1cc(-c2c(-n3cccn3)nc(N)n3nc(Cc4ncccc4F)nc23)ccc1=O` : 1560

Measured IC50, `Cc1cc(-c2c(-c3ncco3)nc(N)n3nc(Cc4c(F)cccc4F)nc23)cc(C)n1` : 10000

Measured IC50, `Cn1cc(-c2c(-c3ccc(F)cc3)nc(N)n3nc(Cc4cscn4)nc23)ccc1=O` : 2290

* * *

molecular target: hA2b (Homo sapiens (Human), UniProt P29275); assay: cAMP inhibition assay in hA2b/CHO cells; type: cell-based; details: adenosine stimulation, read-out: cAMP & FLIPR IC50 (nM) hA2b
Sequence (P29275 whole entry): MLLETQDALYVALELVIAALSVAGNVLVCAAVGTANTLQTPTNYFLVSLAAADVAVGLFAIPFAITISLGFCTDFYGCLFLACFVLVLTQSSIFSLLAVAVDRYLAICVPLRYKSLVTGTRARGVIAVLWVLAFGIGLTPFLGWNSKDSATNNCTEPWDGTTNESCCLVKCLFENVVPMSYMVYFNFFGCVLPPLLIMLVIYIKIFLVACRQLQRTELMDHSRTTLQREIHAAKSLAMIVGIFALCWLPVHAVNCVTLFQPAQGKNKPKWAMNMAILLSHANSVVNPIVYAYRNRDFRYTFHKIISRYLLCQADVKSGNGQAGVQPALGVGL
Doc: threshold 100 nM (exclusive). Items with IC50 beneath it return yes (1); others return no (0).

- molecule: "CN(C)c1cc(-c2c(-c3ccc(F)cc3)nc(N)n3nc(Cc4c(F)cccc4F)nc23)ccn1"
  group_label: "yes (1)"

Field: next molecule
Task item: Given `Cc1cnc2ccc(-c3c(N4CCCC4)nc(N)n4nc(Cc5c(F)cccc5F)nc34)cn12` , is recorded IC50 strictly lower than 100 nM?
Reply: yes (1)

* * *

molecular target: hA2b (Homo sapiens (Human)); assay: cAMP inhibition assay in hA2b/CHO cells; format: cell-based; conditions: adenosine stimulation, read-out: cAMP & FLIPR IC50 (nM) hA2b
property_name: IC50 (nM)
Give your result in nM as a bare value.

// solved cases for IC50 follow
- compound: "Nc1cccc(Cc2nc3c(-c4ccc5nccn5c4)c(-c4ccc(F)cc4)nc(N)n3n2)n1 [Example 37]"
  measurement: 12
- compound: "Cc1cnc2ccc(-c3c(-c4ccc(F)cc4)nc(N)n4nc(CCN(C)C)nc34)cn12 [Example 120]"
  measurement: 146
- compound: "Cn1cc(-c2c(-c3ccc4c(ccn4C)c3)nc(N)n3nc(Cc4ncccc4F)nc23)ccc1=O [Example 97]"
  measurement: 1720

Measured IC50, Cn1cc(-c2c(-c3cccc(Cl)c3)nc(N)n3nc(Cc4ncccc4F)nc23)ccc1=O [Example 70] : 68

Measured IC50, Nc1nc(-c2ccc(F)cc2)c(-c2ccc(=O)n(C3CCOC3)c2)c2nc(Cc3c(F)cccc3F)nn12 (centres unmarked) [Example 23] : 2060

Where these numbers come from: patent US10858365B2
